- Tested on: human Factor 7 mRNA
- test-details: Antisense inhibition of human Factor 7 mRNA in HepB3 cells, lipofectin, 50 nM, real-time RT-PCR
- Type: cell-based
- experimental-context: HepB3 cells, lipofectin, 50 nM antisense oligonucleotide, approximately 24 hours, primer probe set RTS 2927, relative to untreated control
In the oligonucleotide strings, read from the 5' end, every base follows the letter of its sugar. An asterisk marks phosphorothioate; unmarked linkages are phosphodiester. Other units and linkages are bracketed, terminal groups are in braces. A string of capitals states the bases alone. e = 2'-O-(2-methoxyethyl) (MOE); [5mC] = 5-methylcytosine; d = 2'-deoxy (DNA)
assay-readout: % Inhibition of human Factor 7 mRNA levels
Reply with the number and its unit after it.

Consider the following illustrative entries.
[[record]]
substance = "416550 (antisense eT*eG*eG*e[5mC]*eT*dG*dG*d[5mC]*dT*dG*dA*dG*dG*dA*dG*eA*e[5mC]*eA*eA*eT) [compound 416550]"
system_tested = "human Factor 7 mRNA"
recorded_measurement = "55%"

[[record]]
substance = "416432 (antisense eA*eG*e[5mC]*eA*e[5mC]*dT*dG*d[5mC]*dT*d[5mC]*d[5mC]*dT*d[5mC]*d[5mC]*dT*eT*eG*e[5mC]*eA*e[5mC]) [compound 416432]"
system_tested = "human Factor 7 mRNA"
recorded_measurement = "44%"

[[record]]
substance = "407910 (antisense eA*eG*eT*e[5mC]*e[5mC]*dT*dT*dG*d[5mC]*dT*dG*d[5mC]*d[5mC]*dA*dT*e[5mC]*e[5mC]*eG*eA*eG) [compound 407910]"
system_tested = "human Factor 7 mRNA"
recorded_measurement = "72%"

[[record]]
substance = "416467 (antisense e[5mC]*e[5mC]*e[5mC]*eT*eG*dG*d[5mC]*d[5mC]*d[5mC]*d[5mC]*dA*dG*d[5mC]*dT*dG*eA*e[5mC]*eG*eA*eT) [compound 416467]"
system_tested = "human Factor 7 mRNA"
recorded_measurement = "55%"

[[record]]
substance = "416441 (antisense eA*eG*eA*eT*eA*dT*dA*dG*dG*dA*d[5mC]*dT*dG*dG*dA*eG*e[5mC]*eT*eG*eG) [compound 416441]"
system_tested = "human Factor 7 mRNA"
recorded_measurement = "32%"

[[record]]
substance = "416567 (antisense eT*eG*eG*eT*eG*dG*d[5mC]*dA*d[5mC]*d[5mC]*dA*dG*dA*dT*dG*eT*e[5mC]*eT*eG*eA) [compound 416567]"
system_tested = "human Factor 7 mRNA"
recorded_measurement = "2%"


Continue with the substance presented below.
Q. Using the record for 416529 (antisense eG*eG*eG*e[5mC]*eT*dG*dA*dG*dA*d[5mC]*dT*dG*dA*dG*dG*eT*e[5mC]*eA*eG*e[5mC]) [compound 416529] , report its % Inhibition of human Factor 7 mRNA levels.
A. 18%

* * *

- Tested on: human Factor 7 mRNA
- test-details: Dose-dependent antisense inhibition of human Factor 7 in HepB3 cells, transfection with lipofectin
- Assay type: cell-based
- experimental-context: Example 2; HepB3, lipofectin, 6.25 nM, ~16 h
In the oligonucleotide strings, read from the 5' end, every base follows the letter of its sugar. An asterisk marks phosphorothioate; unmarked linkages are phosphodiester. Other units and linkages are bracketed, terminal groups are in braces. A string of capitals states the bases alone. e = 2'-O-(2-methoxyethyl) (MOE); [5mC] = 5-methylcytosine; d = 2'-deoxy (DNA)
assay-readout: percent inhibition of Factor 7 mRNA, 6.25 nM (%)
Write down the numeric answer in % and omit the unit.

Consider the following illustrative entries.
[[record]]
substance = "407936 (antisense eG*eG*e[5mC]*eA*eT*dT*d[5mC]*dG*d[5mC]*d[5mC]*dA*d[5mC]*d[5mC]*dA*dT*eG*e[5mC]*eA*eT*eG) [compound 407936]"
recorded_measurement = 77

[[record]]
substance = "407643 (antisense e[5mC]*eA*e[5mC]*eA*e[5mC]*dA*dT*dG*dG*dA*dG*dT*d[5mC]*dA*dG*e[5mC]*eA*eT*e[5mC]*eG) [compound 407643]"
recorded_measurement = 59

[[record]]
substance = "407641 (antisense e[5mC]*e[5mC]*eT*eG*eA*dG*dG*d[5mC]*d[5mC]*dA*dG*d[5mC]*dA*dG*dA*eT*e[5mC]*eA*e[5mC]*eG) [compound 407641]"
recorded_measurement = 53

[[record]]
substance = "407910 (antisense eA*eG*eT*e[5mC]*e[5mC]*dT*dT*dG*d[5mC]*dT*dG*d[5mC]*d[5mC]*dA*dT*e[5mC]*e[5mC]*eG*eA*eG) [compound 407910]"
recorded_measurement = 44


Continue with the substance presented below.
Q. Using the record for 407935 (antisense eA*eT*eG*e[5mC]*eA*dT*dG*dG*dT*dG*dA*dT*dG*d[5mC]*dT*eT*e[5mC]*eT*eG*eA) [compound 407935] , report its percent inhibition of Factor 7 mRNA, 6.25 nM.
A. 76

* * *

Each entry below carries its recorded % Inhibition (human Factor 7 mRNA).
- Tested on: human Factor 7 mRNA
- test-details: Antisense inhibition of human Factor 7 mRNA in HepB3 cells, lipofectin, 50 nM, real-time RT-PCR
- Assay type: cell-based
- experimental-context: Example 1; HepB3 cells, lipofectin, 50 nM, ~24 h, relative to untreated control cells
- Experimental: Antisense oligonucleotides targeted to a Factor 7 nucleic acid were tested for their effects on Factor 7 mRNA in vitro. […] After a treatment period of approximately 24 hours, RNA was isolated from the cells and Factor 7 mRNA levels were measured by real-time RT-PCR, as described herein. Factor 7 mRNA levels were adjusted according to total RNA content as measured by RIBOGREEN®. […]
In the oligonucleotide strings, read from the 5' end, every base follows the letter of its sugar. An asterisk marks phosphorothioate; unmarked linkages are phosphodiester. Other units and linkages are bracketed, terminal groups are in braces. A string of capitals states the bases alone. e = 2'-O-(2-methoxyethyl) (MOE); [5mC] = 5-methylcytosine; d = 2'-deoxy (DNA)
Write down the numeric answer in % and omit the unit.

Consider the following illustrative entries.
[[record]]
substance = "407651 (antisense eA*eG*e[5mC]*e[5mC]*eT*d[5mC]*dA*dA*dA*d[5mC]*dA*dT*d[5mC]*dT*dA*eT*e[5mC]*eA*eA*eA) [compound 407651]"
recorded_measurement = 32

[[record]]
substance = "403090 (antisense eA*eG*eT*e[5mC]*e[5mC]*dT*dG*dG*dG*dT*d[5mC]*dA*dT*d[5mC]*dA*eG*e[5mC]*e[5mC]*eG*eG) [compound 403090]"
recorded_measurement = 69


Q. Using the record for 407594 (antisense e[5mC]*e[5mC]*eT*eG*e[5mC]*dA*dG*d[5mC]*d[5mC]*dA*dG*dG*d[5mC]*dA*dG*e[5mC]*e[5mC]*e[5mC]*eT*eG) [compound 407594] , report its % Inhibition (human Factor 7 mRNA).
A. 87

* * *

Each entry below carries its recorded % inhibition of human Factor 7 mRNA.
- System: human Factor 7 mRNA
- test-details: Inhibition of human Factor 7 mRNA by 2-10-2 MOE shortmers in HepB3 cells, electroporation, 1,000 nM
- Assay type: cell-based
- experimental-context: electroporation, 1,000 nM oligonucleotide, approximately 24 hours, relative to untreated control cells
In the oligonucleotide strings, read from the 5' end, every base follows the letter of its sugar. An asterisk marks phosphorothioate; unmarked linkages are phosphodiester. Other units and linkages are bracketed, terminal groups are in braces. A string of capitals states the bases alone. e = 2'-O-(2-methoxyethyl) (MOE); [5mC] = 5-methylcytosine; d = 2'-deoxy (DNA)
Reply with the number and its unit after it.

[[record]]
substance = "435765 (antisense e[5mC]*eA*dA*dA*dG*dT*dT*d[5mC]*dT*d[5mC]*dT*dG*e[5mC]*e[5mC]) [compound 435765]"
assay_readout = "% inhibition of human Factor 7 mRNA"
recorded_measurement = "1%"

[[record]]
substance = "435842 (antisense eA*eT*dT*dT*d[5mC]*d[5mC]*d[5mC]*dA*dT*dT*dG*dG*e[5mC]*eA) [compound 435842]"
assay_readout = "% inhibition of human Factor 7 mRNA"
recorded_measurement = "0%"

[[record]]
substance = "435750 (antisense e[5mC]*eA*d[5mC]*dT*dG*d[5mC]*dA*dG*d[5mC]*d[5mC]*dA*dG*eG*eG) [compound 435750]"
assay_readout = "% inhibition of human Factor 7 mRNA"
recorded_measurement = "14%"


Q. Item: 435727 (antisense eT*eG*dG*dA*dG*dT*d[5mC]*dA*dG*d[5mC]*dA*dT*e[5mC]*eG) [compound 435727] Test system: human Factor 7 mRNA Read-out: % inhibition of human Factor 7 mRNA Value: ?
A. 73%

* * *

- Tested on: human Factor 7 mRNA
- test-details: Antisense inhibition of human Factor 7 mRNA in HepB3 cells, lipofectin, 50 nM, real-time RT-PCR
- Type: cell-based
- experimental-context: Example 1; HepB3 cells, lipofectin, 50 nM, ~24 h, relative to untreated control cells
In the oligonucleotide strings, read from the 5' end, every base follows the letter of its sugar. An asterisk marks phosphorothioate; unmarked linkages are phosphodiester. Other units and linkages are bracketed, terminal groups are in braces. A string of capitals states the bases alone. e = 2'-O-(2-methoxyethyl) (MOE); [5mC] = 5-methylcytosine; d = 2'-deoxy (DNA)
Each entry below carries its recorded % Inhibition (human Factor 7 mRNA).
Write down the numeric answer in % and omit the unit.

Q. Using the record for 407886 (antisense eG*e[5mC]*eA*eG*eA*dG*dG*dA*dG*d[5mC]*d[5mC]*dT*dG*dA*dG*eG*eG*e[5mC]*e[5mC]*eT) [compound 407886] , report its % Inhibition (human Factor 7 mRNA).
A. 72

Q. Using the record for 407623 (antisense eT*e[5mC]*e[5mC]*eA*eT*dT*d[5mC]*dA*d[5mC]*d[5mC]*dA*dA*d[5mC]*dA*dA*e[5mC]*eA*eG*eG*eA) [compound 407623] , report its % Inhibition (human Factor 7 mRNA).
A. 69

Q. Using the record for 407892 (antisense e[5mC]*e[5mC]*e[5mC]*e[5mC]*eA*dT*dT*d[5mC]*dT*dG*dG*d[5mC]*dA*dT*dG*eG*eA*e[5mC]*eT*eT) [compound 407892] , report its % Inhibition (human Factor 7 mRNA).
A. 68

Q. Using the record for 407664 (antisense e[5mC]*eA*eG*eG*eG*d[5mC]*dG*dA*dG*dG*d[5mC]*dA*dA*d[5mC]*d[5mC]*e[5mC]*e[5mC]*eG*eT*eG) [compound 407664] , report its % Inhibition (human Factor 7 mRNA).
A. 70

Q. Using the record for 407633 (antisense eG*e[5mC]*eA*eG*eG*d[5mC]*dA*dG*dT*d[5mC]*d[5mC]*dT*dG*dG*dG*eT*e[5mC]*eA*eT*e[5mC]) [compound 407633] , report its % Inhibition (human Factor 7 mRNA).
A. 71

Reference for the values: patent US20120214862A1
